# TESTED_ON: 5HT2A (Homo sapiens, UniProt P28223)
# Sequence (P28223 whole entry): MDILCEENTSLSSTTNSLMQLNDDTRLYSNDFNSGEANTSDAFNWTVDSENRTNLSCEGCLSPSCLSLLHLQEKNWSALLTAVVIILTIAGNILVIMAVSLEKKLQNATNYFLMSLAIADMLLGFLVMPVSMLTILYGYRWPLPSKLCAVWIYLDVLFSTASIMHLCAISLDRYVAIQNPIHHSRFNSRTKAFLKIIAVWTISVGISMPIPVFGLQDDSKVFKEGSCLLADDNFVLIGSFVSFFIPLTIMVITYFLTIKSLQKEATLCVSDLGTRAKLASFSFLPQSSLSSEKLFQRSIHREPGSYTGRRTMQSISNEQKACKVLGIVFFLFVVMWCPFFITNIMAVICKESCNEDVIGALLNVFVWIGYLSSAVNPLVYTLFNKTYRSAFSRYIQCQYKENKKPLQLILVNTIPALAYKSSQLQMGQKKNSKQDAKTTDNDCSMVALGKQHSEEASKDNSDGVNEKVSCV
# ASSAY_NOTES: Calcium mobilization assay (Gq signaling)
# Format: cell-based
# Parameters: host or cells: U2OS (human), stably transfected
# SETTINGS: calcium mobilization
MEASURE: pEC50
Value format note: pEC50 is -log10 of concentration (mol/L); just state the number.

In plain terms, COc1cc(C)c(OC)c2c1CC(N)CC2 (stereo not shown) [Compound 1-2] has a documented pEC50 of 7.41

* * *

# TESTED_ON: Human 5-HT2C receptor (Homo sapiens)
# Sequence (P28335 33-458): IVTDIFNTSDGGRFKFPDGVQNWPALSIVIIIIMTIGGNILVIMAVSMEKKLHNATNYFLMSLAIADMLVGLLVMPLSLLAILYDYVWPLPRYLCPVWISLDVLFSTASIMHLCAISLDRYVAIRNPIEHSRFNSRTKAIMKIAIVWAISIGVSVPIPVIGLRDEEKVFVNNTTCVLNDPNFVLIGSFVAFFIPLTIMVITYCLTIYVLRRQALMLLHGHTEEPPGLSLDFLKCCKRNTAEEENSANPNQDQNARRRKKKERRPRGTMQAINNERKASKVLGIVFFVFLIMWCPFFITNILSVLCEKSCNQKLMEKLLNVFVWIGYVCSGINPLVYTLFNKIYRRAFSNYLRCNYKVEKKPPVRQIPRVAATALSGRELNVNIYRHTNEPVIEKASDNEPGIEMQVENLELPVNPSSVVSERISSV
# ASSAY_NOTES: Calcium mobilization assay (Gq signaling)
MEASURE: EC50 (nM)
Unit nM implied. Number only.

In plain terms, COc1cc(C)c(OC)c2c1CC(N)CC2 (stereo not shown) [Compound 1-2] has a documented EC50 of 4.8
